Values from PubChem BioAssay AID330

- Test system: P388 leukemia ip, CD2F1 mice, survival T/C
- Assay text: NCI In Vivo Anticancer Drug Screen. Data for tumor model P388 Leukemia (intraperitoneal) in CD2F1 (CDF1) mice
- Test parameters: endpoint: median survival time; dose: 200.0 mg/kg/injection; schedule: Q01DX005 (ip); vehicle: saline with Tween-80; higher = longer survival
Inconclusive results and toxic doses are left out.
We begin with a simple list: items and their reported T/C.
Quantity measured: T/C

| Compound | Experimental value |
| --- | --- |
| CCCCN(CCCC)CC(O)c1ccc(OC)c2ccccc12 (stereo not given) | 98 % of control |
| CC1(C)OC1(C(=O)C=[N+]=[N-])c1ccccc1 (stereo not given) | 103 % of control |
| CC(C)C(NC(=O)C1CSC(C)(C)N1C=O)C(=O)O (stereo not given) | 102 % of control |
| Cc1ccc(S(=O)(=O)CC(O)(C(C)C)C(C)C)cc1 | 102 % of control |
| CC1=CC(=N/Br)/C=CC/1=N/Br | 99 % of control |
| CCC(/C=C/c1ccccc1)=N\NC(=O)c1ccccc1 | 95 % of control |
| CC(C)(C)SC(=S)SCC(=O)c1cc2ccccc2o1 | 93 % of control |
| Nc1ccc(N=Nc2ccc3cc4ccc(N=Nc5ccc(N)nc5N)cc4nc3c2)c(N)n1 | 109 % of control |
| CC(C)(C)OC(=O)NC(Cc1ccc(OCc2c(Cl)cccc2Cl)cc1)C(=O)O (stereo not given) | 100 % of control |
| CCN(CC)C(=O)c1ccc2c(c1OCOC)CCC2 | 92 % of control |
| O=[N+]1C=CC=CC1=C1C=CC=CN1[O-] | 103 % of control |
| CCN(CC)c1ccc(/C=N\NC(=O)C(=O)N/N=C\c2ccc(N(CC)CC)cc2)cc1 | 89 % of control |
| OC1COC(c2nn(-c3ccccc3)c3nc4ccccc4nc23)C1O (stereo not given) | 87 % of control |
| COCCN1CC(=O)N2Cc3ccccc3CN2C(=O)C1 | 101 % of control |
| CC(=O)Oc1c2ccccc2cc2ccccc12 | 89 % of control |
| CC1=CC[C@@H]2C(C#N)C3(CCC12C)OCCO3 (stereo not given in full) | 94 % of control |
| Cc1c(-c2ccccc2)oc(=O)c(Cl)c1N(c1ccccc1)c1ccccc1 | 90 % of control |
| CCC(c1ccc(O)cc1)c1cc2c(cc1OCCO)OCO2 (stereo not given) | 95 % of control |
| NC(Cc1ccc(O)cc1)C(=O)N/N=C/c1ccc2c(c1)OCO2 (stereo not given) | 103 % of control |
| O=C1N(Cc2ccccc2)[C@H]2CS(=O)(=O)C[C@@H]2N1Cc1ccccc1 | 86 % of control |
| COc1ccc(C(=O)c2ccc(OCCBr)cc2)c(O)c1 | 88 % of control |
| CC12CCC(C(Br)C1=O)C2(C)CBr (stereo not given) | 92 % of control |
| CC1CN(C(=O)c2ccccc2)CC/C1=N\O (stereo not given) | 101 % of control |
| CCCCn1c2c(c3ccccc3c1=O)C(=O)c1ccccc1-2 | 88 % of control |
| CC(=O)c1cc2ccccc2c2ccccc12 | 96 % of control |
| C#Cc1cccc(N=Cc2cc(Cl)cc(Cl)c2O)c1 | 108 % of control |
| COc1cc(/C(C)=C\CP(=O)(c2ccccc2)c2ccccc2)c(C(=O)O)cc1C | 103 % of control |
| O=C(NC1c2ccccc2Oc2ccccc21)c1ccc([N+](=O)[O-])cc1 | 91 % of control |
| O=C(OCC1OC(n2ccc(=S)[nH]c2=O)C(OC(=O)c2ccccc2)C1OC(=O)c1ccccc1)c1ccccc1 (stereo not given) | 87 % of control |
| CN(C)CC1C2CCC(C2)C1O (stereo not given) | 99 % of control |
| C=CC1CC(NC(=O)c2ccccc2)C(=O)O1 (stereo not given) | 99 % of control |
| CCOC(=O)C(N=Nc1ccc(Br)cc1C)C(C)=O (stereo not given) | 89 % of control |
| CC1(C)OC2OCCC(N=[N+]=[N-])C2O1 (stereo not given) | 94 % of control |
| COC(=O)/N=C/CCC(O)NC(=O)OC (stereo not given) | 92 % of control |
| CC1C(O)C(C)C(c2ccccc2)N(C)C1c1ccccc1 (stereo not given) | 106 % of control |
| CCSc1nc(N)c(Br)c(Sc2nc(N)nc3nc[nH]c23)n1 | 97 % of control |
| Nc1nc(N)c2[nH]c(N=Nc3ccc(N(CCO)CCO)cc3)nc2n1 | 108 % of control |
| CC(C)(C)C1CCC(O)(Cc2ccccc2)CC1 (stereo not given) | 99 % of control |
| CCCCCCCCCCCn1nnnc1N | 96 % of control |
| O=C(O)CCCCCCCCC#CC#CCO | 95 % of control |
